assay: sub-cutaneous LD50 in mice; settings: mouse, in vivo, sc
readout_name: LD50

Input: Need LD50, item CCCc1c2nc(C(=O)[O-])cc(Cl)c2cc2c(=O)cc(C(=O)[O-])oc12.[Na+].[Na+]
Output: > 2000 mg/kg
